System Name: UniProt:Q72547
Test Protocol: Tested for inhibition against HIV-1 RT (used (poly)rC-(oligo)dG as the template)
Define the label as yes (1) when IC50 is strictly less than 60 nM and as no (0) in all remaining cases.

INSERT INTO measurements (compound, assigned_label) VALUES
  ('CCc1cc(CCc2nc3c(Cl)ccc(Cl)c3o2)c(S)nc1C', 'yes (1)'),
  ('CCc1c[nH]c(=O)c(CCc2nc3ccccc3o2)c1', 'no (0)'),
  ('CCCc1cc(CCc2nc3c(Cl)ccc(Cl)c3o2)c(=O)[nH]c1C', 'yes (1)'),
  ('CCc1cc(CCc2nc3cccc(F)c3o2)c(O)nc1C', 'yes (1)'),
  ('CCC1=C(C)NC(N)C(CCc2nc3ccccc3o2)=C1 (stereo not given)', 'no (0)'),
  ('CCc1cc(CCc2ncc(-c3ccccc3)o2)c(O)nc1C', 'no (0)'),
  ('CCc1cc(CCc2nc3ccccc3o2)c(O)nc1C', 'yes (1)'),
  ('CCc1cc(CCc2nc3c(C)ccc(C)c3o2)c(=S)[nH]c1C', 'yes (1)'),
  ('CCc1cc(CCc2nc3c(Cl)cccc3o2)c(O)nc1C', 'no (0)'),
  ('CCc1cc(NCC(=O)Nc2c(O)cc(Cl)cc2Cl)c(O)nc1C', 'no (0)'),
  ('CCc1cc(CCc2ccc3ccccc3c2)c(=O)[nH]c1C', 'no (0)'),
  ('CCc1cc(CCc2nc3cccc(Cl)c3o2)c(O)nc1C', 'yes (1)'),
  ('CCc1cc(CCC2=NC3CCCCC3O2)c(=O)[nH]c1C (stereo not given)', 'yes (1)'),
  ('Cc1cc(CCc2nc3c(Cl)ccc(Cl)c3o2)c(=O)[nH]c1C', 'no (0)'),
  ('CCc1cc(CCc2nc3c(C)cccc3o2)c(=O)[nH]c1C', 'yes (1)'),
  ('CCc1cc(CCc2nc3c(F)ccc(F)c3o2)c(O)nc1C', 'yes (1)'),
  ('CCc1cc(CCc2nc3cc(F)ccc3o2)c(=O)[nH]c1C', 'no (0)'),
  ('Cc1nc(O)c(CCc2nc3ccccc3o2)cc1-c1ccccc1', 'no (0)'),
  ('CCc1cc(CCc2nc3cccc(Cl)c3o2)c(=S)[nH]c1C', 'yes (1)'),
  ('CCc1cc(CCc2nc3c(Cl)ccc(Cl)c3o2)c(=O)[nH]c1C', 'yes (1)'),
  ('CCc1cc(CCc2ccccc2)c(=O)[nH]c1C', 'no (0)'),
  ('CCc1cc(Cc2nc3ccccc3o2)c(O)nc1C', 'no (0)'),
  ('CCc1cc([S+]([O-])Cc2nc3c(Cl)ccc(Cl)c3o2)c(O)nc1C (stereo not given)', 'no (0)'),
  ('CCc1cc(CCC(=O)Nc2c(O)cc(Cl)cc2Cl)c(O)nc1C', 'no (0)'),
  ('CCc1cc(CCc2nc3c(Cl)cccc3o2)c(S)nc1C', 'yes (1)');

###

Test Protocol: Percent unbound determined for whole normal human plasma
Assay type: functional
Reported Property: Unbound

INSERT INTO measurements (entry_smiles, reported_property, observed_result) VALUES
  ('CCc1cc(CCc2nc3c(C)ccc(C)c3o2)c(O)nc1C', 'Unbound', '0.2%'),
  ('CCc1cc(NCc2nc3c(Cl)ccc(Cl)c3o2)c(O)nc1C', 'Unbound', '0.4%'),
  ('CCc1cc(CCc2nc3ccccc3o2)c(O)nc1C', 'Unbound', '4%'),
  ('CCc1cc(CCc2nc3cccc(Cl)c3o2)c(O)nc1C', 'Unbound', '0.7%'),
  ('CCc1cc(CCc2nc3c(Cl)cccc3o2)c(O)nc1C', 'Unbound', '3%'),
  ('CCc1cc(CCc2nc3c(C)cccc3o2)c(O)nc1C', 'Unbound', '0.4%'),
  ('CCc1cc(CCc2nc3c(Cl)ccc(Cl)c3o2)c(O)nc1C', 'Unbound', '0.1%'),
  ('CCc1cc(CCc2nc3c(F)cccc3o2)c(O)nc1C', 'Unbound', '4%'),
  ('CCc1cc(CCc2nc3c(F)ccc(F)c3o2)c(O)nc1C', 'Unbound', '3%'),
  ('CCc1cc(CCc2nc3cccc(F)c3o2)c(O)nc1C', 'Unbound', '1.4%');

These measurements were taken from ChEMBL document CHEMBL1126643.
